# Test system: TYK2(JH1domain-catalytic)
# conditions: concentration: 1 μM, replicates: in singlicate; n = 1;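 note: KINOMEscan kinase panel screen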
reported property: %Inh (%)
Reply numerically in %, unit not repeated.

Worked examples, 6 compounds total:
O=C(O)C(F)(F)F.O=C(O)C(F)(F)F.O=c1[nH]ccc2nc(N[C@@H]3CCCNC3)nc(Nc3ccc(S(=O)(=O)N4CCOCC4)cc3)c12
99.7
O=C(Nc1cccc(-c2nn3ccccc3c2-c2ccnc(Nc3cccc(C(F)(F)F)c3)n2)c1)c1c(F)cccc1F
20
Cn1cc(-c2[nH]c3cc(NC(=O)[C@H](N)C4CCCCC4)cc4c3c2C=NNC4=O)cn1
95.1
COC(=O)Nc1nc2cc(Oc3ccc(NC(=O)Nc4cc(C(F)(F)F)ccc4F)cn3)ccc2[nH]1.Cl.Cl
14
Cl.Cl.NCC(C(=O)Nc1cc(Br)c(-c2ccnc3[nH]ccc23)s1)c1ccccc1 (stereo not drawn)
22
O=C(NC1CCN(c2ccnc(Nc3ccc(F)cc3)n2)C1)c1cc2ccccc2s1 (stereo not drawn)
2

Request: API: value(readout=%Inh, system=TYK2(JH1domain-catalytic)) for record CCc1ccc(-c2ccc3c(c2)-c2c(cnn2C)S(=O)(=O)N3C)cc1
Response: 0

Request: API: value(readout=%Inh, system=TYK2(JH1domain-catalytic)) for record COC(=O)Nc1nc2ccc(Oc3ccc(NC(=O)Nc4cc(C(F)(F)F)ccc4F)cc3)cc2n1C.Cl
Response: 26

Request: API: value(readout=%Inh, system=TYK2(JH1domain-catalytic)) for record Clc1ccc(-c2nn3ncccc3c2-c2ccnc(Nc3ccc4c(c3)OCCO4)n2)cc1
Response: 0

Request: API: value(readout=%Inh, system=TYK2(JH1domain-catalytic)) for record CN(C)Cc1ccc(-c2ccc3c(Nc4ccc(Oc5ccccn5)cc4)ccnc3c2)o1
Response: 30

Request: API: value(readout=%Inh, system=TYK2(JH1domain-catalytic)) for record COc1cc(Nc2nccc(-c3c(-c4cccc(NC(=O)c5c(F)cccc5F)c4)nn4ccccc34)n2)cc(OC)c1OC
Response: 0

Request: API: value(readout=%Inh, system=TYK2(JH1domain-catalytic)) for record CCn1c(-c2nonc2N)nc2c(C#CC(C)(C)O)ncc(OCCCCN)c21.O=C(O)C(F)(F)F.O=C(O)C(F)(F)F
Response: 33

Request: API: value(readout=%Inh, system=TYK2(JH1domain-catalytic)) for record Cc1occc1-c1ncc(OC[C@@H](N)Cc2c[nH]c3ccccc23)cc1-c1ccc2[nH]nc(C)c2c1.O=C(O)C(F)(F)F
Response: 7

Request: API: value(readout=%Inh, system=TYK2(JH1domain-catalytic)) for record COc1cccc(-c2ccc3c(NC(=O)C4CC4)n[nH]c3n2)c1
Response: 52

Request: API: value(readout=%Inh, system=TYK2(JH1domain-catalytic)) for record C[C@@H](Oc1cc(-n2cnc3cc(-c4ccnc(NCCS(C)(=O)=O)c4)ccc32)sc1C(N)=O)c1ccccc1Cl
Response: 12

---

# Tested on: MLK1
# Construct: gene MAP3K9
# conditions: concentration: 1 μM, replicates: in singlicate; n = 1
reported property: %Inh (%)
Reply numerically in %, unit not repeated.

COc1cc(Nc2nccc(-c3c(-c4cccc(NC(=O)c5c(F)cccc5F)c4)nn4ccccc34)n2)cc(OC)c1OC
28
Cn1cc(-c2ccc3c(c2)CCN3C(=O)Cc2cccc(F)c2)c2c(N)ncnc21
20
FC(F)(F)c1ccc(/C=C/c2cncnc2Nc2ccc3[nH]c(Cc4ccccc4)nc3c2)cc1
19

Below: the item to evaluate.
Request: Report %Inh for COc1cc(Nc2nccc(N3CCC(NC(=O)Nc4cccc(C(C)=O)c4)C3)n2)cc(OC)c1OC (stereo not shown) please.
Response: 48

---

# Tested on: CDK8
# conditions: concentration: 1 μM, replicates: in singlicate; n = 1
Measured %Inh of individual entries
Reply numerically in %, unit not repeated.

COC(=O)Nc1nc2ccc(Oc3ccc(NC(=O)Nc4cc(C(F)(F)F)ccc4F)cc3)cc2n1C.Cl
77
Cn1cc(-c2ccc3c(c2)CCN3C(=O)Cc2cccc(Cl)c2)c2c(N)ncnc21
100
Cc1cccc(Nc2nc(N[C@H]3CCNC3)ncc2C(N)=O)c1.Cl
0
O=C(NC1CCN(c2ccnc(Nc3ccc(F)cc3)n2)C1)c1cc2ccccc2s1 (centres unmarked)
52
C[C@@H]1CC[C@@H](C(=O)Nc2ccccc2)CN1c1cc(-c2ccc3c(N)n[nH]c3c2)nc(N)n1
19
O=C(Nc1n[nH]c2cc(-c3ccoc3)ccc12)C1CC1
11
FC(F)(F)c1ccc(/C=C/c2cncnc2Nc2ccc3[nH]c(Cc4ccccc4)nc3c2)cc1
64
Cc1ccc(C(=O)Nc2ccc(Nc3ccnc4cc(-c5nccs5)ccc34)cc2O)cc1.Cl
23
Oc1cc(Nc2ccnc3cc(I)ccc23)ccc1F
23
Nc1ncc(-c2ccc3nccc(-c4ccncc4)c3c2)cc1S(=O)(=O)N1CCOCC1
4

Request: Report %Inh for Cc1ccc(C)c(NC(=O)NC2CCN(c3ccnc(Nc4ccc(F)cc4)n3)C2)c1 (centres unmarked) please.
Response: 21

Request: Report %Inh for Cc1cccc(NC(=O)Nc2ccc(Oc3ncnc4ccn(C)c34)cc2)c1 please.
Response: 72

Request: Report %Inh for CN1CCN(CCCNc2nccc(-c3c(-c4ccc(F)cc4)nn4cc(C(F)(F)F)ccc34)n2)CC1 please.
Response: 19

Request: Report %Inh for Clc1ccc(-c2nn3ncccc3c2-c2ccnc(Nc3ccc4c(c3)OCCO4)n2)cc1 please.
Response: 20

Request: Report %Inh for c1ccc(-c2n[nH]cc2Nc2ccnc3ccccc23)nc1 please.
Response: 30

Request: Report %Inh for Cl.c1ccc(-c2ccc3c(Nc4ccc5[nH]ncc5c4)ccnc3c2)nc1 please.
Response: 26

Request: Report %Inh for O=C(Nc1cccc(-c2nn3ccccc3c2-c2ccnc(Nc3cccc(C(F)(F)F)c3)n2)c1)c1c(F)cccc1F please.
Response: 14

---

# System: AURKC
# conditions: concentration: 1 μM, replicates: in singlicate; n = 1
reported property: %Inh (%)
Reply numerically in %, unit not repeated.

Worked examples, 7 compounds total:
FC(F)(F)c1ccc(/C=C/c2cncnc2Nc2ccc3[nH]c(Cc4ccccc4)nc3c2)cc1
0
Cc1occc1-c1ncc(OC[C@@H](N)Cc2c[nH]c3ccccc23)cc1-c1ccc2[nH]nc(C)c2c1.O=C(O)C(F)(F)F
53
COC(=O)Nc1nc2cc(Oc3ccc(NC(=O)Nc4cc(C(F)(F)F)ccc4F)cn3)ccc2[nH]1.Cl.Cl
52
Cl.Cl.NCC(NC(=O)c1cc(-c2ccccc2)c(-c2ccnc3[nH]ccc23)s1)c1ccccc1 (centres unmarked)
69
CCn1c(-c2nonc2N)nc2c(C#CC(C)(C)O)nc(OC[C@H](N)c3ccccc3)cc21
4
CCn1c(-c2nonc2N)nc2c(C#CC(C)(C)O)ncc(OCCCCN)c21.O=C(O)C(F)(F)F.O=C(O)C(F)(F)F
9
COc1cc(Nc2nccc(-c3c(-c4cccc(NC(=O)c5c(F)cccc5F)c4)nn4ncccc34)n2)cc(OC)c1OC
70

Below: the item to evaluate.
Request: Report %Inh for Cn1cc(-c2ccc3c(c2)CCN3C(=O)Cc2cccc(F)c2)c2c(N)ncnc21 please.
Response: 47

---

# Tested on: JNK3
# Construct: gene MAPK10
# conditions: concentration: 1 μM, replicates: in singlicate; n = 1
Measured %Inh of individual entries
Reply numerically in %, unit not repeated.

Worked examples, 3 compounds total:
COc1ccc(CNC(=O)NC2CCN(c3ccnc(Nc4ccc(F)cc4)n3)CC2)cc1 [GSK1379788]
0
c1ccc(Oc2ccc(Nc3ccnc4cc(-c5ccc(CNCCN6CCOCC6)o5)ccc34)cc2)nc1 [GW567145]
0
c1ccc(-c2cnc3nccnn23)cc1 [AH20685]
4

Request: Report %Inh for Cn1cc(-c2[nH]c3cc(NC(=O)[C@H](N)C4CCCCC4)cc4c3c2C=NNC4=O)cn1 please.
Response: 0

Request: Report %Inh for Oc1cc(Nc2ccnc3cc(I)ccc23)ccc1F [GW552771] please.
Response: 28

Request: Report %Inh for O=C(Nc1n[nH]c2nc(-c3ccc(O)cc3)ccc12)C1CC1 [SB-710363] please.
Response: 2

Request: Report %Inh for C[C@@H](Oc1cc(-n2cnc3cc(-c4ccnc(NCCS(C)(=O)=O)c4)ccc32)sc1C(N)=O)c1ccccc1Cl [GSK907232] please.
Response: 1

Request: Report %Inh for O=C(Nc1ccccc1F)NC1CCN(c2ccnc(Nc3ccc(F)cc3)n2)CC1 [GSK1379800] please.
Response: 0

Request: Report %Inh for Cc1ccc(C(=O)Nc2ccc(Nc3ccnc4cc(-c5nccs5)ccc34)cc2O)cc1.Cl [GW494702] please.
Response: 9

---

# Test system: CLK3
# conditions: concentration: 1 μM, replicates: in singlicate; n = 1
reported property: %Inh (%)
Reply numerically in %, unit not repeated.

Worked examples, 3 molecules total:
CC(=O)N1CCN(c2ccc(Nc3nccc(-c4sc(C(C)C)nc4-c4cccc(NS(=O)(=O)c5cccc(Cl)c5)c4)n3)cn2)CC1
0
Cc1ccc(C(=O)N2CC[C@@H](O)C2)cc1-n1c(C)cc(OCc2ccc(F)cc2F)c(Br)c1=O
0
Cn1cc(-c2ccc3c(c2)CCN3C(=O)Cc2cccc(Cl)c2)c2c(N)ncnc21
13

Request: Report %Inh for CN(C)S(=O)(=O)c1cc(-c2ccc3nccc(-c4cccc(S(N)(=O)=O)c4)c3c2)cnc1N please.
Response: 21
